Catalogue of residual activity readings, one per entry.
- Study target: Serine/threonine-protein kinase PAK 4 (Homo sapiens)
- Test settings: at 10 µM
Field: numeric (%). Do not append units.

Example results:
Compound smiles: CCOc1cc2ncnc(Nc3cccc(Br)c3)c2cc1OCC
Measured metric: residual activity
Unit symbol: %
Value: 79

Compound smiles: N#CC(C#N)=C(N)/C(C#N)=C/c1ccc(O)cc1
Measured metric: residual activity
Unit symbol: %
Value: 91

Exercise: // residual activity lookup, key: O=C1Nc2ccc(Br)cc2/C1=C\c1cc2c([nH]1)CCCC2
Key: 77

Exercise: Here is the next compound: CO[C@H]1C[C@@H]2CC[C@@H](C)[C@@](O)(O2)C(=O)C(=O)N2CCCC[C@H]2C(=O)O[C@H]([C@H](C)C[C@@H]2CC[C@@H](O)[C@H](OC)C2)CC(=O)[C@H](C)/C=C(\C)[C@@H](O)[C@@H](OC)C(=O)[C@H](C)C[C@H](C)/C=C/C=C/C=C/1C
Key: 88

Exercise: Here is the next compound: Cc1ccc(S(=O)(=O)/C=C/C#N)cc1
Key: 95

Exercise: Here is the next compound: CO[C@H]1[C@@H](OC)C[C@H](C)[C@@H](OC)C2=CC(=O)C=C(NC(=O)/C(C)=C/C=C/[C@H](OC)[C@@H](OC(N)=O)/C(C)=C/[C@@H]1C)C2=O
Key: 92

Exercise: Here is the next compound: N#CCCc1ccc2c(c1)-c1[nH]c3ccc([N+](=O)[O-])cc3c1CC(=O)N2
Key: 4

Exercise: Here is the next compound: O=C(Nc1cccc(Nc2cc(Nc3cccc(C(F)(F)F)c3)ncn2)c1)C1CC1
Key: 79

Exercise: Here is the next compound: Oc1c2ccccc2c2c3c(cccc13)N=N2
Key: 45

Exercise: Here is the next compound: Nc1cccc(-c2cc3c(Oc4cccc(O)c4)ncnc3[nH]2)c1
Key: 19

Exercise: Here is the next compound: COc1cc2ncnc(Nc3ccc(Oc4ccccc4)cc3)c2cc1OC
Key: 80

---

- Study target: Serine/threonine-protein kinase PLK1 (Homo sapiens)
- Test settings: at 10 µM
Measured metric: residual activity (%)
Field: numeric (%). Do not append units.

Example results:
Compound smiles: Cn1cnc2cc3c(Nc4cccc(Br)c4)ncnc3cc21
residual activity (%): 82

Compound smiles: O=C1Nc2cc(Br)ccc2/C1=C1/Nc2ccccc2/C1=N\O
residual activity (%): 81

Pending compound:
Exercise: Can you look up residual activity on Serine/threonine-protein kinase PLK1 (Homo sapiens) for CC#CC(=O)Nc1cc2c(Nc3ccc(F)c(Cl)c3)ncnc2cn1 ?
Key: 81

---

Catalogue of residual activity readings, one per entry.
- Study target: Ephrin type-B receptor 1 (Homo sapiens)
- Test settings: at 10 µM
Field: numeric (%). Do not append units.

Example results:
Compound smiles: Cc1cncc2cccc(S(=O)(=O)N3CCCN(C(=O)CN)C[C@H]3C)c12
Unit symbol: %
Value: 31

Compound smiles: CO[C@H]1C[C@@H]2CC[C@@H](C)[C@@](O)(O2)C(=O)C(=O)N2CCCC[C@H]2C(=O)O[C@H]([C@H](C)C[C@@H]2CC[C@@H](O)[C@H](OC)C2)CC(=O)[C@H](C)/C=C(\C)[C@@H](O)[C@@H](OC)C(=O)[C@H](C)C[C@H](C)/C=C/C=C/C=C/1C
Unit symbol: %
Value: 105

Exercise: // residual activity lookup, key: COc1ccc(CNc2nc(N(CCO)CCO)nc3c2ncn3C(C)C)cc1
Key: 77

---

- Study target: SRSF protein kinase 3 (Homo sapiens) (UniProt Q9UPE1)
- Sequence (Q9UPE1 whole entry): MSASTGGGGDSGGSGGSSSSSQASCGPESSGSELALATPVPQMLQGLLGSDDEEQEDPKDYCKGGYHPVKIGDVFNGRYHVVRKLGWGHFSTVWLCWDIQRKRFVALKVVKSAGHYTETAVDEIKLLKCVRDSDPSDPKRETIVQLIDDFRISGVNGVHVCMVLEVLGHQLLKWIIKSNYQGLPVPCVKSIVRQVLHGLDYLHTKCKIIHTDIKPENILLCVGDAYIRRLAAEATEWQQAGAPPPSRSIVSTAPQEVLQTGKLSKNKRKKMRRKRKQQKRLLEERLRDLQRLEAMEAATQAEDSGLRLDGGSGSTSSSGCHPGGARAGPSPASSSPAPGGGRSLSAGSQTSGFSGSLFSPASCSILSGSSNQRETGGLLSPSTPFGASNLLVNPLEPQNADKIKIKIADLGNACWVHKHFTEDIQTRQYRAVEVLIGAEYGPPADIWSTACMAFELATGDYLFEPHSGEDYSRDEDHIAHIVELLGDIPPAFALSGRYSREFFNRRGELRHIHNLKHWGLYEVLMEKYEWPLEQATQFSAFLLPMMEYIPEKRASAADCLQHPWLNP
- Test settings: at 1 µM
- Description: Millipore: Percentage of residual kinase activity of SRPK3 at 1uM relative to control. Control inhibitor: Phosphoric acid* at 0.3uM. Buffer: 8 mM MOPS pH 7.0, 0.2 mM EDTA
Measured metric: residual activity (%)
Field: numeric (%). Do not append units.

Example results:
Compound smiles: Oc1ccc(-c2nc(-c3ccc(F)cc3)c(-c3ccncc3)[nH]2)cc1
Study target: SRSF protein kinase 3 (Homo sapiens) (UniProt Q9UPE1)
Value: 120
//
Compound smiles: COc1cc2ncnc(Nc3ccc(O)c(Br)c3)c2cc1OC
Study target: SRSF protein kinase 3 (Homo sapiens) (UniProt Q9UPE1)
Value: 95
//
Compound smiles: Cc1nc(-c2ccccc2)c(-c2ccncc2)o1
Study target: SRSF protein kinase 3 (Homo sapiens) (UniProt Q9UPE1);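 also: residual kinase activity expressed as percent of uninhibited control, measured in MOPS buffer at pH 7.0 containing EDTA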
Value: 112

Exercise: Can you look up residual activity on SRSF protein kinase 3 (Homo sapiens) (UniProt Q9UPE1) for O=C1NC(=O)/C(=C\c2ccc3nccnc3c2)S1 ?
Key: 94

Exercise: Here is the next compound: c1ccc(-c2n[nH]cc2-c2ccnc3ccccc23)nc1
Key: 109

Exercise: Here is the next compound: CC[n+]1c(/C=C/N(C)c2ccccc2)n(-c2ccccc2)c2ccc(-c3nc4ccccc4s3)cc21
Key: 107

Exercise: Here is the next compound: O=C1NC(=O)/C(=C/c2ccc3c(c2)OC(F)(F)O3)S1
Key: 100

---

- Study target: Insulin receptor-related protein (Homo sapiens) (UniProt P14616)
- Sequence (P14616 27-742 limits assumed): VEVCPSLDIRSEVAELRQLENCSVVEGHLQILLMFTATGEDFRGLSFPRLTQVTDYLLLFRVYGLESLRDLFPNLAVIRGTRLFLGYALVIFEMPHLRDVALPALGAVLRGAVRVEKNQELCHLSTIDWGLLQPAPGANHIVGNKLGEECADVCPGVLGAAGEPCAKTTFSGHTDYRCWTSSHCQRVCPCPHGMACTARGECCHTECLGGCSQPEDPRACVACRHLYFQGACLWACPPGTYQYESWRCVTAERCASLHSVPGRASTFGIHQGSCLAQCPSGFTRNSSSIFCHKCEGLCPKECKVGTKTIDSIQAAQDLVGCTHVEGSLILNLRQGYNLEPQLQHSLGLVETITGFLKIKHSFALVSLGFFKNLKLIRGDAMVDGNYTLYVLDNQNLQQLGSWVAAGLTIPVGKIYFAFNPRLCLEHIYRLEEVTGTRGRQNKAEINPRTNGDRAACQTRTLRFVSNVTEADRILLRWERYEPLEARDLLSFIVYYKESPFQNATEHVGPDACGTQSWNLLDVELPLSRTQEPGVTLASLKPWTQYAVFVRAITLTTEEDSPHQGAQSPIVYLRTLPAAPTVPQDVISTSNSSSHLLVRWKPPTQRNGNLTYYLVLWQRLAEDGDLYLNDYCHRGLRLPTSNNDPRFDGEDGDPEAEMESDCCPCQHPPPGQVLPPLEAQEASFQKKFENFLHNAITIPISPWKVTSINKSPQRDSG
- Sequence (P14616 747-1297 limits assumed): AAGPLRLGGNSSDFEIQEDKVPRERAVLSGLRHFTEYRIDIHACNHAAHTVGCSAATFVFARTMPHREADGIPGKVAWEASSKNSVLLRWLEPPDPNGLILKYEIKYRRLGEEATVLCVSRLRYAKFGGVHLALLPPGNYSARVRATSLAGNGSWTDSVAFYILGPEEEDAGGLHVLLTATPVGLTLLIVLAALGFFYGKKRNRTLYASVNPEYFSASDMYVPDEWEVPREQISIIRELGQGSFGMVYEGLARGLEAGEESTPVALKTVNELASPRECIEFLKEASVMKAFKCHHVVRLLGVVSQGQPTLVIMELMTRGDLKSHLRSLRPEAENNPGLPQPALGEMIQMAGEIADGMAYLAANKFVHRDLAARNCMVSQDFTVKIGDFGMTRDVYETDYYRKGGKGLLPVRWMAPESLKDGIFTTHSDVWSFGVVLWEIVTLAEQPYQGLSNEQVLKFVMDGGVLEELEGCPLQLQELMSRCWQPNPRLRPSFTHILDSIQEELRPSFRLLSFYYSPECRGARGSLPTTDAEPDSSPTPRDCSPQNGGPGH
- Test settings: at 10 µM
Catalogue of residual activity readings, one per entry.
Field: numeric (%). Do not append units.

Example results:
Compound smiles: Cn1cc(/C=C2\C(=O)Nc3ccc(S(N)(=O)=O)cc32)c2ccccc21
Study target: Insulin receptor-related protein (Homo sapiens) (UniProt P14616)
residual activity (%): 35
--
Compound smiles: CO[C@H]1C[C@@H]2CC[C@@H](C)[C@@](O)(O2)C(=O)C(=O)N2CCCC[C@H]2C(=O)O[C@H]([C@H](C)C[C@@H]2CC[C@@H](O)[C@H](OC)C2)CC(=O)[C@H](C)/C=C(\C)[C@@H](O)[C@@H](OC)C(=O)[C@H](C)C[C@H](C)/C=C/C=C/C=C/1C
Study target: Insulin receptor-related protein (Homo sapiens) (UniProt P14616)
residual activity (%): 99
--
Compound smiles: Nc1cccc(-c2cc3c(Oc4cccc(O)c4)ncnc3[nH]2)c1
Study target: Insulin receptor-related protein (Homo sapiens) (UniProt P14616)
residual activity (%): 58
--
Compound smiles: Nc1ccc2ncnc(NCCc3ccc(Oc4ccccc4)cc3)c2c1
Study target: Insulin receptor-related protein (Homo sapiens) (UniProt P14616)
residual activity (%): 108

Pending compound:
Exercise: // residual activity lookup, key: CC(C)n1cnc2/c(=N/c3cccc(Cl)c3)nc(NCCO)[nH]c21
Key: 35

---

- Study target: Serine/threonine-protein kinase Nek2 (Homo sapiens)
- Test settings: at 10 µM
- Description: Millipore: Percentage of residual kinase activity of NEK2 at 10uM relative to control. Control inhibitor: Phosphoric acid* at 0.3uM. Buffer: 8 mM MOPS pH 7.0, 0.2 mM EDTA
Assign class by residual activity: not lower than 90% means met; lower than 90% means not met.

Compound smiles: N#CC(C#N)=C(N)/C(C#N)=C/c1ccc(O)cc1
Category: met

Compound smiles: O=C(O)c1ccc2c3c1cccc3c(=O)n1c3ccccc3nc21
Category: met

Compound smiles: COc1ccc(CNc2nc(N(CCO)CCO)nc3c2ncn3C(C)C)cc1
Category: not met

Compound smiles: CC[n+]1c(/C=C/N(C)c2ccccc2)n(-c2ccccc2)c2ccc(-c3nc4ccccc4s3)cc21
Category: met

Turning now to a further record.
Exercise: Check the entry CO[C@H]1[C@@H](OC)C[C@H](C)[C@@H](OC)C2=CC(=O)C=C(NC(=O)/C(C)=C/C=C/[C@H](OC)[C@@H](OC(N)=O)/C(C)=C/[C@@H]1C)C2=O : does residual activity equal or exceed 90%?
Key: not met

---

- Study target: Aurora kinase B (Homo sapiens) (UniProt Q96GD4)
- Sequence (Q96GD4 whole entry): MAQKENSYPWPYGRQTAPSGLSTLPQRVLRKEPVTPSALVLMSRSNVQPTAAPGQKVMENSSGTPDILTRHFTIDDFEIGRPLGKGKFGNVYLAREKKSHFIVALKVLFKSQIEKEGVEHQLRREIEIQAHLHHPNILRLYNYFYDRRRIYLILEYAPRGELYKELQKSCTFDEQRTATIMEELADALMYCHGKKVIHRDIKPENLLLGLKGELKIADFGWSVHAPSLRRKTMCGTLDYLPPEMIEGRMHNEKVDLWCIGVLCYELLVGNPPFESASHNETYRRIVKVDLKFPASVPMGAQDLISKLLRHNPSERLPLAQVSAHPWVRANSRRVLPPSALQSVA
- Test settings: at 10 µM
Measured metric: residual activity (%)
Field: numeric (%). Do not append units.

Compound smiles: CC(C)n1cnc2c(NCc3ccccc3)nc(NCCCO)nc21
Study target: Aurora kinase B (Homo sapiens) (UniProt Q96GD4)
Value: 85
--
Compound smiles: CCOc1cc2ncnc(Nc3cccc(Br)c3)c2cc1OCC
Study target: Aurora kinase B (Homo sapiens) (UniProt Q96GD4)
Value: 7
--
Compound smiles: Oc1n[nH]c2nnc(-c3c(-c4ccccc4)nn4ccccc34)cc12
Study target: Aurora kinase B (Homo sapiens) (UniProt Q96GD4)
Value: 2
--
Compound smiles: O=C(Nc1cccc(Nc2cc(Nc3cccc(C(F)(F)F)c3)ncn2)c1)C1CC1
Study target: Aurora kinase B (Homo sapiens) (UniProt Q96GD4)
Value: 30
--
Compound smiles: Nc1ccc2ncnc(NCCc3ccc(Oc4ccccc4)cc3)c2c1
Study target: Aurora kinase B (Homo sapiens) (UniProt Q96GD4)
Value: 11
--
Compound smiles: O=C1c2ccccc2-[n+]2ccc3c([nH]c4ccccc43)c21
Study target: Aurora kinase B (Homo sapiens) (UniProt Q96GD4)
Value: 52
--
Compound smiles: CO[C@H]1C[C@@H]2CC[C@@H](C)[C@@](O)(O2)C(=O)C(=O)N2CCCC[C@H]2C(=O)O[C@H]([C@H](C)C[C@@H]2CC[C@@H](O)[C@H](OC)C2)CC(=O)[C@H](C)/C=C(\C)[C@@H](O)[C@@H](OC)C(=O)[C@H](C)C[C@H](C)/C=C/C=C/C=C/1C
Study target: Aurora kinase B (Homo sapiens) (UniProt Q96GD4)
Value: 73
--
Compound smiles: CC#CC(=O)Nc1cc2c(Nc3ccc(F)c(Cl)c3)ncnc2cn1
Study target: Aurora kinase B (Homo sapiens) (UniProt Q96GD4)
Value: 85

Exercise: // residual activity lookup, key: Cc1cncc2cccc(S(=O)(=O)N3CCCN(C(=O)CN)C[C@H]3C)c12
Key: 3

Exercise: Here is the next molecule: N#Cc1cnc2cnc(NCc3cccnc3)cc2c1Nc1ccc(F)c(Cl)c1
Key: 1

Exercise: Here is the next molecule: CC(=O)c1ccc(N2CCOCC2)cc1O
Key: 95
